Taken from the supplement of paper PMC9170038.

# System: MS2 coat protein
# experiment.summary: apparent KD of MS2 coat protein; designed switch direction (-1 OFF switch, 1 ON switch): 1; higher = weaker reporter binding
# measurement.conditions: input ligand: microRNA oligo, concentration not stated
Label rule met when apparent KD of MS2 coat protein is at or above 40 nM; otherwise label rule not met.

Example entries and their recorded answers appear below.
* UUAGAAUUGCAAGGAUAUCUAAUUUAGAUAGUAAGAGAAGGUGCUUUAUAGUUACAUGAGGAUCACCCAUGUUUUUUUUUUUAU [JR_SSNG1_Sub060] (Eterna round: R96, puzzle: Same State NG 1) | rule not met
* GAGGGACAGACCAACAUGAGGAUCACCCAUGUCCUCGCAGGUCAGGAUAUUAUGAGGAUCACCCGUGAGAAGGGACGGUGAACC (Eterna round: R96, puzzle: Same State NG 3) | rule met
* UGGCUCAGACUAGGAUAUGAUCAUGGCGCUUCGGCGCAUACAUGAGGAUCACCCAUGUAAAGUGAUCAGAAGGAGUCUGAGCCU [SSNG2/7-C3] (Eterna round: R96, puzzle: Same State NG 2) | rule not met

// query Does the sequence ACCCACGACGGAGGAUAUGGGCACUCGGCGGAAUAAACCGCCAUAACAUGAGGAUCACCCAUGUCCCAGAAGGCCGUCGCAAUC [Esdirece] (Eterna round: R96, puzzle: Same State NG 2) have recorded apparent KD of MS2 coat protein that is 40 nM or more?
// result rule met

// query Does the sequence UUUAGGAGUCAAGGAUAUGCUACCGUUUCGGUAGCAGAAGGUGAUCACAUGAGGAUCACCCAUGUAUGCAUGCGUGAGCGUGCU [JL SSNG1 3.62] (Eterna round: R96, puzzle: Same State NG 1) have recorded apparent KD of MS2 coat protein that is 40 nM or more?
// result rule not met

====

This section presents sequences with their documented apparent KD of MS2 coat protein values.
# Test system: MS2 coat protein
# experiment.summary: apparent KD of MS2 coat protein; designed switch direction (-1 OFF switch, 1 ON switch): -1; higher = weaker reporter binding
# measurement.conditions: input ligand: none
Dear colleague, please return just the value in nM, with no unit written.

• UUCCGACAUGAGGAUCACCCAUGUAAGGAUAUGCACUAGAGGGCAAACCCUCUUAACGGCAGAAGGUGCAGGGA [Qudile] (Eterna round: R97, puzzle: Exclusion 1) = 15
• CGCCUCAGAGGAUAUACUACGGUUUCCUCAUGAUGCGGCCAACAUGAGGAUCACCCAUGUAGAAGGCUGAGAAA [EX2 A.5] (Eterna round: R97, puzzle: Exclusion 2) = 52.2
• AAUACAAGCUAUUGAUCCCACAUGAGGAUCACCCAUGUAGCUGGCGGUGACACCUCCAUUACGAUAGCUCGUCUUAU [Sensor-V1 #56] (Eterna round: R97, puzzle: Sensor, turn-off variant 1) = 1670
• UCUGGUCGAGGAUAUGCAAUCGUGCUUCGGCACGUAAGGUCACAUGAGGAUCACCCAUGUAGAAGGCGACCAGA [E2/4-A3] (Eterna round: R97, puzzle: Exclusion 2) = 17.3

Let's switch to this sequence now.
// query What value of measured apparent KD of MS2 coat protein is listed for AGUGCAUGAGGAUAUGCAAAUCGAAAGACGCAAGGGCAAUCACAUGAGGAUCACCCAUGUAGAAGGCGUCGCAC [Eternabot (Original) Solution 17] (Eterna round: R97, puzzle: Exclusion 2) ?
// result 31.9
